Measured decrease in OX1 potency compared to 11 accompanies every entry in the list below.
- experimental-target: human OX1 receptors (Homo sapiens, UniProt O43613)
- test-name: Calcium mobilization Ke assay
- Format: cell-based

Below are worked cases with known answers.
{"columns": ["molecule", "decrease in OX1 potency compared to 11"],
 "data": [
  ["COc1cc2c(cc1OC)C(Cc1cccc(OC(C)C)c1)N(CC(=O)NCc1ccccc1)CC2 (stereo not shown)", "~ 7 fold"],
  ["COc1cc2c(cc1OC)C(Cc1ccc(OCc3ccccc3)c(OC)c1)N(CC(=O)NCc1ccccc1)CC2 (stereo not shown)", "2 fold"],
  ["COc1cc2c(cc1OC)C(Cc1ccc(OS(=O)(=O)c3ccccc3)c(OC)c1)N(CC(=O)NCc1ccccc1)CC2 (stereo not shown)", "~ 9 fold"]
]}

Below: the item to evaluate.
Write down the reported decrease in OX1 potency compared to 11 (system: human OX1 receptors (Homo sapiens, UniProt O43613)) of COc1cc2c(cc1OC)C(Cc1ccc(OC)c([N+](=O)[O-])c1)N(CC(=O)NCc1ccccc1)CC2 (stereo not shown) ~ 7 fold

====

- experimental-target: human OX2 receptors (Homo sapiens)
- Sequence (O43614 whole entry): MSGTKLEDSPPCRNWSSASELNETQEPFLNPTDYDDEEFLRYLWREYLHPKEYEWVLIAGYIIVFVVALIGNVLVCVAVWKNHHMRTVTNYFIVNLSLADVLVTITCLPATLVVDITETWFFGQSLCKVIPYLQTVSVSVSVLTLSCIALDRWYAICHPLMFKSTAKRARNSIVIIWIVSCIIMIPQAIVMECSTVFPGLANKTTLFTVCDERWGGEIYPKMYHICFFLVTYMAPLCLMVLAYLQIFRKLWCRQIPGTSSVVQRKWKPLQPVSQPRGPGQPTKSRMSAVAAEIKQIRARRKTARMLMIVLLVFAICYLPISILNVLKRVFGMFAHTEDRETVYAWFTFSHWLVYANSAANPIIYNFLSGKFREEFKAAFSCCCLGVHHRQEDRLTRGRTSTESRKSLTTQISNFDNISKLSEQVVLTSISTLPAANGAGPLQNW
- test-name: Calcium mobilization Ke assay
- Assay type: cell-based
quantity-measured: Kb

{"columns": ["molecule", "Kb"],
 "data": [
  ["COc1cc2c(cc1OC)C(Cc1ccc(C(C)C)cc1)N(CC(=O)NCc1ccccc1)CC2 (stereo not shown)", "> 10 µM"],
  ["CCNc1cc(CC2c3cc(OC)c(OC)cc3CCN2CC(=O)NCc2ccccc2)ccc1OC (stereo not shown)", "> 10 µM"],
  ["COc1cc2c(cc1OC)C(Cc1ccc3ncccc3c1)N(CC(=O)NCc1ccccc1)CC2 (stereo not shown)", "> 10 µM"]
]}

We next turn to a different molecule, shown below.
For the molecule COc1cc2c(cc1OC)C(Cc1ccc3ccccc3c1)N(CC(=O)NCc1ccccc1)CC2 (stereo not shown) , report Kb. 1.62 µM

====

- experimental-target: human OX1 receptors (Homo sapiens)
- Sequence (O43613 1-425): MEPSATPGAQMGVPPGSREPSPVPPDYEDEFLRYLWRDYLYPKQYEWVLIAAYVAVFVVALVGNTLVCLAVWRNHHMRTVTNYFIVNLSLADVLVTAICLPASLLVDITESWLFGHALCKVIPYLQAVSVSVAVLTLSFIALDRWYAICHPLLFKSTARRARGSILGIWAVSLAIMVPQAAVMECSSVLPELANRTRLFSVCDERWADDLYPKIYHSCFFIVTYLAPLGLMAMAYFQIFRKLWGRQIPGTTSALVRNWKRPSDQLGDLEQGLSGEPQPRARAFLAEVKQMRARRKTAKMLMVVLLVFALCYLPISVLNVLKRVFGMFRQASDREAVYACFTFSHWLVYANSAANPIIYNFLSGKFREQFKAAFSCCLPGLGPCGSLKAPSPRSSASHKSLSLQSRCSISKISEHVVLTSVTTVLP
- test-name: Calcium mobilization Ke assay
- Format: cell-based
- reported-conditions: ratio of Ke OX2 to Ke OX1 (table column)
quantity-measured: OX2/OX1

Below, each entry is followed by its recorded OX2/OX1 result.
{"columns": ["compound", "experimental-target", "OX2/OX1"],
 "data": [
  ["CCCC(=O)Oc1ccc(CC2c3cc(OC)c(OC)cc3CCN2CC(=O)NCc2ccccc2)cc1OC (centres unmarked)", "human OX1 receptors (Homo sapiens)", 48],
  ["CCNc1cc(CC2c3cc(OC)c(OC)cc3CCN2CC(=O)NCc2ccccc2)ccc1OC (centres unmarked)", "human OX1 receptors (Homo sapiens)", ">32"],
  ["COc1cc2c(cc1OC)C(Cc1ccc(OC)c(N(C)C)c1)N(CC(=O)NCc1ccccc1)CC2 (centres unmarked)", "human OX1 receptors (Homo sapiens)", 76.7],
  ["COc1cc2c(cc1OC)C(Cc1ccc(C(C)C)cc1)N(CC(=O)NCc1ccccc1)CC2 (centres unmarked)", "human OX1 receptors (Homo sapiens)", ">118"],
  ["CCCOc1ccc(CC2c3cc(OC)c(OC)cc3CCN2CC(=O)NCc2ccccc2)cc1 (centres unmarked)", "human OX1 receptors (Homo sapiens)", ">27"],
  ["COc1cc2c(cc1OC)C(Cc1ccc(OC(C)C)cc1)N(CC(=O)NCc1ccccc1)CC2 (centres unmarked)", "human OX1 receptors (Homo sapiens)", ">20"]
]}

Determine from records and report OX2/OX1 for COc1cc2c(cc1OC)C(Cc1cccc(OC(C)C)c1)N(CC(=O)NCc1ccccc1)CC2 (centres unmarked) >6.8

Check the records and state OX2/OX1 for COc1cc2c(cc1OC)C(Cc1cccc([N+](=O)[O-])c1)N(CC(=O)NCc1ccccc1)CC2 (centres unmarked) <0.12

Attribution: paper PMC4400266
